The reported numbers originate from ChEMBL document CHEMBL1125087.

target: 3-hydroxy-3-methylglutaryl-coenzyme A reductase (Homo sapiens, UniProt P04035); assay: Inhibition of cellular HMG-CoA reductase in cultures of human HEP G2 cells, determined by decreased incorporation of sodium [14C]acetate into cholesterol.
Sequence (P04035 whole entry): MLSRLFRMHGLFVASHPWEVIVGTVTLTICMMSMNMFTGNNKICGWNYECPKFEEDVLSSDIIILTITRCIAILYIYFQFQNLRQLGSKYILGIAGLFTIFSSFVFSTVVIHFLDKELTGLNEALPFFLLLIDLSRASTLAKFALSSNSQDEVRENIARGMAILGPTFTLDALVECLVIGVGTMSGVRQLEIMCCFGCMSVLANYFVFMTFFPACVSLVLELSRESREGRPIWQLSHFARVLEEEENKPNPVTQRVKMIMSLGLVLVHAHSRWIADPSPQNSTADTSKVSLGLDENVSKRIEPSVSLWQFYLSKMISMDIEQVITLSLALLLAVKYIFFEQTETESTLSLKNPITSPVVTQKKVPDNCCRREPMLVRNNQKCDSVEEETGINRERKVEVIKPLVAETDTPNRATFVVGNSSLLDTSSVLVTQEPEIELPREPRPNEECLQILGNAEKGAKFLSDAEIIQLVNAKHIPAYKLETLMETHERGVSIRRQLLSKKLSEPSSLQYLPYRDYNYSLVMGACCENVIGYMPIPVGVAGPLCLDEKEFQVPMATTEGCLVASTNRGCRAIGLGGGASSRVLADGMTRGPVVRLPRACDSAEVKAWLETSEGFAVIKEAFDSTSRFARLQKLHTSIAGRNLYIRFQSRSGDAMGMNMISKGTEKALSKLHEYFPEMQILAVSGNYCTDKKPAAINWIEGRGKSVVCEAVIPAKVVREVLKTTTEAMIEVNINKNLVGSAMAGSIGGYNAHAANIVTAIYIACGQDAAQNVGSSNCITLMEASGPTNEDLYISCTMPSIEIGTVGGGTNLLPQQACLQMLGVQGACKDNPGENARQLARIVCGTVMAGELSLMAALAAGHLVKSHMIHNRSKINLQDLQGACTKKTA
pIC50: −log10 of the molar value.
parameter measured: pIC50

P = CC(C)c1cc(-c2ccccc2)nc(-c2ccc(F)cc2)c1/C=C/[C@@H]1C[C@@H](O)CC(=O)O1
Q = Cc1ccc(C)c(-c2cc(-c3ccc(F)cc3)c(/C=C/[C@@H]3C[C@@H](O)CC(=O)O3)c(C(C)C)n2)c1
Prompt line: Of P and Q , which carries the smaller reported pIC50 figure? Answer = label.
Response line: Q
(Q: 7.70, P: 8.00)

A = Cc1cc(-c2ccc(F)cc2)c(/C=C/[C@@H]2C[C@@H](O)CC(=O)O2)c(C(C)C)n1
B = Cc1nc(-c2ccccc2)cc(-c2ccc(F)cc2)c1/C=C/[C@@H]1C[C@@H](O)CC(=O)O1
Prompt line: Lab notebook, comparison: A versus B , higher pIC50 goes to which? Give the label under which the chosen entry appears.
Response line: A
(A: 7.30, B: 7.05)

I = CC(C)c1nc(C(C)(C)C)cc(-c2ccc(F)cc2)c1/C=C/[C@@H]1C[C@@H](O)CC(=O)O1
II = COc1ccc(-c2cc(-c3ccccc3)nc(C(C)C)c2/C=C/[C@@H]2C[C@@H](O)CC(=O)O2)cc1
Prompt line: Quick one: lower pIC50, I or II ? // return label of chosen record
Response line: II
(II: 6.82, I: 7.70)

A = CC(C)c1nc(-c2ccc(F)cc2)cc(-c2ccc(F)cc2)c1/C=C/[C@@H]1C[C@@H](O)CC(=O)O1
B = CC(C)c1nc(-c2ccccc2)cc(-c2ccc(F)cc2)c1CCC1C[C@@H](O)CC(=O)O1 (stereo partly drawn)
Prompt line: Hello, I am sorting some records. Could you say if A or B has the smaller pIC50 value? Mark your answer with the label of the selected entry.
Response line: B

P = CC(C)c1nc(-c2ccc(F)cc2)c(/C=C/[C@@H]2C[C@@H](O)CC(=O)O2)c(C(C)C)n1
Q = Cc1cc(-c2ccc(F)cc2)c(/C=C/[C@@H]2C[C@@H](O)CC(=O)O2)c(C)n1
Prompt line: Between P and Q , whose measured pIC50 reads higher? Selection: enter the item's label.
Response line: P
(P: 8.32, Q: 5.70)

----------
Target: 3-hydroxy-3-methylglutaryl-coenzyme A reductase (Rattus norvegicus, UniProt P51639)
Sequence (P51639 whole entry): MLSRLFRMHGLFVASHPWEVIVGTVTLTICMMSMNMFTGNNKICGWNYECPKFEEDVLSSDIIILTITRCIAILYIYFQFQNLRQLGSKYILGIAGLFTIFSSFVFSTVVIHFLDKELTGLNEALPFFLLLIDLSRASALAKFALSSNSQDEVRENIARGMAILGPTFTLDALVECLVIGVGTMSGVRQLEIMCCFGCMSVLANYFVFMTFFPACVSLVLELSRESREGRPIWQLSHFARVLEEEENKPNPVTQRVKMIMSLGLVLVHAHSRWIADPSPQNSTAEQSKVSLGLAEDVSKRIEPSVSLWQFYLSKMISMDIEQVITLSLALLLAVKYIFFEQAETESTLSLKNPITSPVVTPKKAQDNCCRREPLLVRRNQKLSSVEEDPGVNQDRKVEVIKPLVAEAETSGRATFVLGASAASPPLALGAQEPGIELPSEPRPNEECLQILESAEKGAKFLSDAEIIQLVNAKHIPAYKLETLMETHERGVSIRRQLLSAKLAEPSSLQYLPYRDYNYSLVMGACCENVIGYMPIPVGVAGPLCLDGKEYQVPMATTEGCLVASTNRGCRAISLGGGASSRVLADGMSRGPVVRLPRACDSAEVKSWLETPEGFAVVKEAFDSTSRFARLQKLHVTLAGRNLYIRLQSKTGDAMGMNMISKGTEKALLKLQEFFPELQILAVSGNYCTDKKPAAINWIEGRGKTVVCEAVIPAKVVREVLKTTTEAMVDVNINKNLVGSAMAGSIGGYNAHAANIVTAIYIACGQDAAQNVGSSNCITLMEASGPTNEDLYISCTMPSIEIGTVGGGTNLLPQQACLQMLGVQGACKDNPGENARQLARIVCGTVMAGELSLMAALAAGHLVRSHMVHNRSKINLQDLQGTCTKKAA
parameter measured: IC50 (nM)

Below: 2 molecules and their reported IC50.
- compound smiles: "CC(C)c1nc(C2CCCCC2)nc(-c2ccc(F)cc2)c1/C=C/[C@@H]1C[C@@H](O)CC(=O)O1"
  parameter measured: "IC50"
  measured result: 1
- compound smiles: "CC(C)(C)c1nc(-c2ccccc2)cc(-c2ccc(F)cc2)c1/C=C/[C@@H]1C[C@@H](O)CC(=O)O1"
  parameter measured: "IC50"
  measured result: 18

A = Cc1nc(C)c(/C=C/[C@@H]2C[C@@H](O)CC(=O)O2)c(-c2ccc(Cl)cc2)n1
B = Cc1cc(-c2ccc(F)cc2)c(/C=C/[C@@H]2C[C@@H](O)CC(=O)O2)c(C(C)C)n1
Prompt line: Between A and B , whose recorded IC50 is greater? Please reply using the label of the selected record.
Response line: A
